The values you see were collected from ChEMBL document CHEMBL1123307.

Answer each item with its documented pKi.
target: Mu-type opioid receptor (Cavia porcellus)
Sequence (P97266 whole entry): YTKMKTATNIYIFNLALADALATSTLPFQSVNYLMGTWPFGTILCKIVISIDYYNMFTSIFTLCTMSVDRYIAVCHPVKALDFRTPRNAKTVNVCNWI
Where a name gives a salt, the structure may show the parent alone. Residues, ends and D or L forms follow the SMILES beside them. *: point of attachment. X2 = O=C(N/N=C1/CC[C@@]2(O)[C@H]3Cc4ccc(O)c5c4[C@@]2(CCN3CC2CC2)[C@H]1O5)*; X1 = CN1CC[C@]23c4c5ccc(O)c4O[C@H]2/C(=N\NC(=O)*)CC[C@@]3(O)[C@H]1C5
Give bare numbers, as −log10 of the molar value.

>  <Compound>
CC(C)CC(NC(=O)C(Cc1ccccc1)NC(=O)N/N=C1/CC[C@@]2(O)C3Cc4ccc(O)c5c4C2(CCN3CC2CC2)[C@H]1O5)C(=O)O (some centres not stated)

>  <Subject Of Test>
Mu-type opioid receptor (Cavia porcellus)

>  <pKi>
9.12

$$$$
>  <Compound>
NC(=O)N/N=C1/CC[C@@]2(O)C3Cc4ccc(O)c5c4C2(CCN3CC2CC2)[C@H]1O5 (some centres not stated) [NALTREXONE SEMICARBAZONE]

>  <Subject Of Test>
Mu-type opioid receptor (Cavia porcellus)

>  <pKi>
9.32

$$$$

// for each compound below, give its pKi
1. CC[C@H](C)[C@H](NC(=O)[C@H](CCCN=C(N)N)NC(=O)[C@H](CCCN=C(N)N)NC(=O)[C@H](CC(C)C)NC(=O)[C@H](Cc1ccccc1)NC(=O)N/N=C1/CC[C@@]2(O)[C@H]3Cc4ccc(O)c5c4[C@@]2(CCN3CC2CC2)[C@H]1O5)C(=O)OC (X2-FLRRI-OMe)
2. CC(C)CC(NC(=O)C(Cc1ccccc1)NC(=O)N/N=C1/CC[C@@]2(O)C3Cc4ccc(O)c5c4C2(CCN3C)[C@H]1O5)C(=O)O (some centres not stated)
3. CN1CCC23c4c5ccc(O)c4O[C@H]2/C(=N\NC(N)=O)CC[C@@]3(O)C1C5 (some centres not stated) [OXYMORPHONE SEMICARBAZONE HYDROCHLORIDE]
4. CC[C@H](C)[C@H](NC(=O)[C@H](CCCN=C(N)N)NC(=O)[C@H](CCCN=C(N)N)NC(=O)[C@H](CC(C)C)NC(=O)[C@H](Cc1ccccc1)NC(=O)N/N=C1/CC[C@@]2(O)[C@H]3Cc4ccc(O)c5c4[C@@]2(CCN3C)[C@H]1O5)C(=O)OC (X1-FLRRI-OMe)
5. CC[C@H](C)[C@H](NC(=O)[C@H](CCCNC(=N)N)NC(=O)[C@H](CCCNC(=N)N)NC(=O)[C@H](CC(C)C)NC(=O)[C@H](Cc1ccccc1)NC(=O)CNC(=O)CNC(=O)[C@@H](N)Cc1ccc(O)cc1)C(=O)OC

A.
1. 8.64
2. 7.83
3. 7.84
4. 7.81
5. 6.47
